TARGET_UNDER_TEST: T1, Anti-CD28 Fab (SEQ ID NOs: 696, 697)
T1 construct: Biotinylated and captured on neutravidin coated plates in the phage ELISA
METHOD_NOTES: phage binding ELISA, Fab on plate pre-incubated with CD28 antigen as competitor
Below, each entry is listed alongside its reported Anti-CD28 Fab signal in the presence of CD28.
QUANTITY: Anti-CD28 Fab signal in the presence of CD28

{"columns": ["BINDER", "TEST_VALUE"],
 "data": [
  ["YCDGHLPMYMMKCL (Clonal phage of the Peptide-87 library, tested as crude supernatant; not shown: pIII of the bacteriophage to which the peptide is fused) [Phage-561]", 0.14],
  ["YCDGHAKEYMWKCL (Clonal phage of the Peptide-87 library, tested as crude supernatant; not shown: pIII of the bacteriophage to which the peptide is fused) [Phage-554]", 0.07],
  ["YCDGHSREYIAKCL (Clonal phage of the Peptide-87 library, tested as crude supernatant; not shown: pIII of the bacteriophage to which the peptide is fused) [Phage-558]", 0.08],
  ["YCDGHLPQYMWKCL (Clonal phage of the Peptide-87 library, tested as crude supernatant; not shown: pIII of the bacteriophage to which the peptide is fused) [Phage-559]", 0.12]
]}
